As shown below, each of these compounds has a reported IC50 value.
studyTarget: JAK1 (Homo sapiens (Human), UniProt P23458)
procedureText: Enzyme assay (Assay Example^a 1), JAK1
Type: biochemical
conditionLabel: ATP 100 μM

compound | IC50, µM
S=c1[nH]c(C2CCCCC2)c2c3cc[nH]c3ncn12 | 0.02
Cc1ccc(CN2CCC(c3nnn4cnc5[nH]ccc5c34)CC2)s1 | 0.0068
CN[C@H]1CC[C@H](c2nnn3cnc4[nH]ccc4c23)CC1 [398b] | 0.029
N#Cc1ccc(CN2CCC(c3nnn4cnc5[nH]ccc5c34)CC2)cc1C#N | 0.0065
O=C(NCC(F)(F)F)C1CN(C[C@H]2CC[C@H](c3nnn4cnc5[nH]ccc5c34)CC2)C1 | 0.011
N#CC(NC(=O)[C@H]1CC[C@H](c2nnn3cnc4[nH]ccc4c23)CC1)c1ccccc1 (stereo partly shown) | 0.012
FC(F)(F)C(F)(F)CN[C@H]1CC[C@@H](c2nnn3cnc4[nH]ccc4c23)CC1 [383a] | 0.09
O=C1COc2ccc(CN3CCC(c4nnn5cnc6[nH]ccc6c45)CC3)cc2N1 | 0.021
N#CCNC(=O)[C@H]1CC[C@H](c2nnn3cnc4[nH]ccc4c23)CC1 | 0.0042
c1cc2c(ncn3nnc([C@H]4CC[C@H](CN5CCC5)CC4)c23)[nH]1 | 0.0059
OCCNC[C@H]1CC[C@H](c2nnn3cnc4[nH]ccc4c23)CC1 | 0.0035
OCCN(CCO)C[C@H]1CC[C@H](c2nnn3cnc4[nH]ccc4c23)CC1 | 0.019
Fc1cc(NC[C@H]2CC[C@H](c3nnn4cnc5[nH]ccc5c34)CC2)cc(F)c1F | 0.031
FC(F)(F)CN(CC1CC1)C[C@H]1CC[C@H](c2nnn3cnc4[nH]ccc4c23)CC1 | 0.03
N#Cc1ccc(NC[C@H]2CC[C@H](c3nnn4cnc5[nH]ccc5c34)CC2)cc1Cl | 0.013
N#CC1CN(C(=O)[C@H]2CC[C@H](c3nnn4cnc5[nH]ccc5c34)CC2)C1 | 0.044
c1cc2c(ncn3nnc([C@H]4CC[C@H](CNC5CC5)CC4)c23)[nH]1 | 0.0019
O=C(N[C@H]1CCN(C[C@H]2CC[C@H](c3nnn4cnc5[nH]ccc5c34)CC2)C1)C(F)(F)F | 0.024
CC1CCCCC1c1nnn2cnc3[nH]ccc3c12 (stereo not shown) | 0.0042
C#CCNC[C@H]1CC[C@H](c2nnn3cnc4[nH]ccc4c23)CC1 | 0.0085
NC(=O)[C@H]1CC[C@H](c2nnn3cnc4[nH]ccc4c23)CC1 | 0.0099
O=C(NCC(O)(c1ccccc1)C(F)(F)F)[C@H]1CC[C@H](c2nnn3cnc4[nH]ccc4c23)CC1 (stereo partly shown) | 0.0051
c1cn(-c2ccc(CN3CCC(c4nnn5cnc6[nH]ccc6c45)CC3)cc2)cn1 | 0.018
Brc1cc(CN2CCC(c3nnn4cnc5[nH]ccc5c34)CC2)sc1Br | 0.021
O=C(OCc1ccccc1)N1CCCC(c2ncn3cnc4[nH]ccc4c23)C1 (racemic) | 0.057
O=C(NCCc1ccc(Cl)cc1)[C@H]1CC[C@H](c2nnn3cnc4[nH]ccc4c23)CC1 | 0.005
N#CCCN(CCC#N)C1CCC(c2nnn3cnc4[nH]ccc4c23)CC1 (stereo not shown) | 0.002
OC1CN(C[C@H]2CC[C@@H](c3nnn4cnc5[nH]ccc5c34)CC2)C1 | 0.04
CN(C)S(=O)(=O)C[C@H]1CC[C@H](c2nnn3cnc4[nH]ccc4c23)CC1 | 0.0043
c1cc2c(ncn3nnc([C@H]4CC[C@H](NC5CC5)CC4)c23)[nH]1 [392b] | 0.014
N#CCCNC(=O)[C@H]1CC[C@H](c2nnn3cnc4[nH]ccc4c23)CC1 | 0.0036
FC1CN(C[C@H]2CC[C@H](c3nnn4cnc5[nH]ccc5c34)CC2)C1 | 0.0069
FC(F)(F)COC1CN(C[C@H]2CC[C@H](c3nnn4cnc5[nH]ccc5c34)CC2)C1 | 0.01
OCC1(NC[C@H]2CC[C@H](c3nnn4cnc5[nH]ccc5c34)CC2)CC1 | 0.007

###

studyTarget: JAK3 (Homo sapiens (Human), UniProt P52333)
Sequence (P52333 whole entry): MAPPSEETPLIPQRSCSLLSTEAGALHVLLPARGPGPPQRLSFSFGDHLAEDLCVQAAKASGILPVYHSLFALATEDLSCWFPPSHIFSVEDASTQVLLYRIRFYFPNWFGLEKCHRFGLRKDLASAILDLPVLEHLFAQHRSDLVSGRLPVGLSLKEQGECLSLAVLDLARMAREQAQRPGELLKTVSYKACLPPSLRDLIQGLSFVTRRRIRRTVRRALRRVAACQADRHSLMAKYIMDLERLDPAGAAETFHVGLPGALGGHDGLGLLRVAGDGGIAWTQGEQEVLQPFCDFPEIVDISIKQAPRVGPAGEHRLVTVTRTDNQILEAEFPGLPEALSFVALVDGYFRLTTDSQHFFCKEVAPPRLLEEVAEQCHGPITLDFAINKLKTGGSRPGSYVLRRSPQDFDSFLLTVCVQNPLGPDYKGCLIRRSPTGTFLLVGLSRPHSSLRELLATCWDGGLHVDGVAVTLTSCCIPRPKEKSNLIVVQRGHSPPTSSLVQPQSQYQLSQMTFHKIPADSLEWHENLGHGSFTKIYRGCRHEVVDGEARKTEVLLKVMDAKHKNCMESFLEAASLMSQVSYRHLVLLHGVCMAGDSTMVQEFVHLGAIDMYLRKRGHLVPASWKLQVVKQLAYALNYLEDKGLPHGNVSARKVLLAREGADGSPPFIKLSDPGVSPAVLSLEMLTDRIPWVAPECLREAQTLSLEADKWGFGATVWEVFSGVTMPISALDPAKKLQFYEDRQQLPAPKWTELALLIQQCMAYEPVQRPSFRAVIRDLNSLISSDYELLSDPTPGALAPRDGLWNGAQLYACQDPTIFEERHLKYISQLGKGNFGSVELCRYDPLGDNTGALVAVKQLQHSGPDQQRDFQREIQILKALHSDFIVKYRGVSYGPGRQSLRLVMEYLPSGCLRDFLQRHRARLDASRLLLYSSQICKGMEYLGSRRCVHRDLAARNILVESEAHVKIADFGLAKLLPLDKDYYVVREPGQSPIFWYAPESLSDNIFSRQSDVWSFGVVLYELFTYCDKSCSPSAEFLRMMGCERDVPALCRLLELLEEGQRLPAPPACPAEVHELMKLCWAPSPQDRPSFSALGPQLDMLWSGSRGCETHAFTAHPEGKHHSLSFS
procedureText: Enzyme assay (Assay Example^a 1), JAK3
Assay type: biochemical
conditionLabel: ATP 100 μM; Table^a 154

molecule | studyTarget | valueRelationSign | IC50 [µM]
Clc1cnccc1CN1CCC(c2nnn3cnc4[nH]ccc4c23)CC1 [compound 163] | JAK3 (Homo sapiens (Human), UniProt P52333) | = | 0.41
Fc1ccc(CN2CCC(c3nnn4cnc5[nH]ccc5c34)CC2)cc1C(F)(F)F [compound 154] | JAK3 (Homo sapiens (Human), UniProt P52333) | = | 0.62
CN(C)S(=O)(=O)c1ccc2c(c1)CCN2C[C@H]1CC[C@H](c2nnn3cnc4[nH]ccc4c23)CC1 [compound 190] | JAK3 (Homo sapiens (Human), UniProt P52333) | > | 1
FC(F)(F)c1cccc(CN2CCC(c3nnn4cnc5[nH]ccc5c34)CC2)c1 [compound 39] | JAK3 (Homo sapiens (Human), UniProt P52333) | = | 0.53

###

studyTarget: JAK1 (Homo sapiens (Human), UniProt P23458)
procedureText: Enzyme assay (Assay Example^a 1), JAK1
Format: biochemical
conditionLabel: ATP 100 μM; Table^a 154
Flag rule - IC50 less than 0.008 µM flags t; the remaining entries get f.

compound | label
c1ccc(CN[C@H]2CC[C@@H](c3nnn4cnc5[nH]ccc5c34)CC2)cc1 [194a] | f
O=C(OCc1ccccc1)N1CCC(c2nnn3cnc4[nH]ccc4c23)C1 (racemic) [compound 211] | f
N#Cc1ccc(CN[C@H]2CC[C@@H](c3nnn4cnc5[nH]ccc5c34)CC2)cc1 [137a] | f
Clc1ccc(CN[C@H]2CC[C@H](c3nnn4cnc5[nH]ccc5c34)CC2)cc1 [197b] | t
FC1(F)CCC(c2nnn3cnc4[nH]ccc4c23)CC1 [compound 64] | f
Fc1ccc(CN2CCC(c3nnn4cnc5[nH]ccc5c34)CC2)nc1 [compound 162] | f
O=C(Nc1ccc(F)cc1)[C@H]1CC[C@H](c2nnn3cnc4[nH]ccc4c23)CC1 [compound 206] | f
O=C(N[C@H]1CC[C@H](c2nnn3cnc4[nH]ccc4c23)CC1)OCc1ccccc1 [compound 60] | t
FC(F)(F)c1ccc(CN[C@H]2CC[C@@H](c3nnn4cnc5[nH]ccc5c34)CC2)cc1 [138a] | f
Fc1ccc(CN2CCC(c3nnn4cnc5[nH]ccc5c34)CC2)c(F)c1 [compound 164] | t
COc1ccc(CN2CCC(c3nnn4cnc5[nH]ccc5c34)CC2)cn1 [compound 170] | f
CN(C)[C@H]1CCN(C[C@H]2CC[C@H](c3nnn4cnc5[nH]ccc5c34)CC2)C1 [compound 181] | f
Cc1ccc(CNC[C@H]2CC[C@H](c3nnn4cnc5[nH]ccc5c34)CC2)s1 [compound 106] | t
N#C[C@H]1CCN(C[C@H]2CC[C@H](c3nnn4cnc5[nH]ccc5c34)CC2)C1 [compound 187] | t
c1cc2c(ncn3nnc(C4CCC4)c23)[nH]1 [compound 67] | f
FC(F)(F)c1nc2cc(NC[C@H]3CC[C@H](c4nnn5cnc6[nH]ccc6c45)CC3)ccc2[nH]1 [compound 175] | t
c1csc(CN2CCC(c3nnn4cnc5[nH]ccc5c34)CC2)n1 [compound 48] | f
Fc1cc(C(F)(F)F)ccc1CN1CCC(c2nnn3cnc4[nH]ccc4c23)CC1 [compound 157] | t

###

studyTarget: JAK3 (Homo sapiens (Human), UniProt P52333)
procedureText: Enzyme assay (Assay Example^a 1), JAK3
Assay type: biochemical
conditionLabel: ATP 100 μM
As shown below, each of these molecules has a reported log10 IC50 value.
quantityKind: log10 IC50 (log10 of the value in µM)

molecule | log10 IC50
N#CC(C#N)C[C@H]1CC[C@H](c2nnn3cnc4[nH]ccc4c23)CC1 | -0.77
N#Cc1ccc(CN2CCC(c3nnn4cnc5[nH]ccc5c34)CC2)cc1F | -0.49
N#Cc1cc(CN2CCC(c3nnn4cnc5[nH]ccc5c34)CC2)ccc1F | -0.03
O=C(C[C@H]1CC[C@H](c2nnn3cnc4[nH]ccc4c23)CC1)NCC(F)(F)F [442b] | -1.00
N#CC1CC12CCC(c1nnn3cnc4[nH]ccc4c13)CC2 (stereo not drawn) | -0.60
CN(C)S(=O)(=O)C[C@H]1CC[C@H](c2nnn3cnc4[nH]ccc4c23)CC1 | -0.48
NC(=O)[C@H]1CC[C@H](c2nnn3cnc4[nH]ccc4c23)CC1 | -0.12
FC1(F)Oc2ccc(NC[C@H]3CC[C@H](c4nnn5cnc6[nH]ccc6c45)CC3)cc2O1 | -0.07
N#CC[C@H]1CC[C@@H](c2nnn3cnc4[nH]ccc4c23)CC1 [435a] | -0.14
O=C(OCc1ccccc1)N1CCCC(c2ncn3cnc4[nH]ccc4c23)C1 (racemic) | 0.15
FC(F)(F)C(F)(F)CNC[C@H]1CC[C@H](c2nnn3cnc4[nH]ccc4c23)CC1 | -0.89
CC1CC1NC[C@H]1CC[C@H](c2nnn3cnc4[nH]ccc4c23)CC1 (stereo partly drawn) | -0.17
c1cc2c(ncn3nnc([C@H]4CC[C@H](CNC5CCC5)CC4)c23)[nH]1 | -0.05
OCC1(NC[C@H]2CC[C@H](c3nnn4cnc5[nH]ccc5c34)CC2)CC1 | -0.10
O=S(=O)(C[C@H]1CC[C@H](c2nnn3cnc4[nH]ccc4c23)CC1)C(F)(F)F | -0.43
CSc1ccc(C(O)(CN[C@H]2CC[C@H](c3nnn4cnc5[nH]ccc5c34)CC2)C(F)(F)F)cc1 (stereo partly drawn) [386b] | -0.55
Clc1ccc(CN2CCC(c3nnn4cnc5[nH]ccc5c34)CC2)cn1 | -1.40
N#Cc1ccc(CN2CCC(c3nnn4cnc5[nH]ccc5c34)CC2)cc1C(F)(F)F | -0.36
O=C1COc2cc(NC[C@H]3CC[C@H](c4nnn5cnc6[nH]ccc6c45)CC3)ccc2N1 | -0.24
c1cc(CN2CCC(c3nnn4cnc5[nH]ccc5c34)CC2)ccn1 | -0.21
N#CCC(=O)N(C[C@H]1CC[C@H](c2nnn3cnc4[nH]ccc4c23)CC1)C1CC1 | -0.04
